Test system: T1, EsCas13d, nuclease-dead (Eubacterium siraeum, UniProt B0MS50, R295A;H300A;R849A;H854A)
T1 sequence: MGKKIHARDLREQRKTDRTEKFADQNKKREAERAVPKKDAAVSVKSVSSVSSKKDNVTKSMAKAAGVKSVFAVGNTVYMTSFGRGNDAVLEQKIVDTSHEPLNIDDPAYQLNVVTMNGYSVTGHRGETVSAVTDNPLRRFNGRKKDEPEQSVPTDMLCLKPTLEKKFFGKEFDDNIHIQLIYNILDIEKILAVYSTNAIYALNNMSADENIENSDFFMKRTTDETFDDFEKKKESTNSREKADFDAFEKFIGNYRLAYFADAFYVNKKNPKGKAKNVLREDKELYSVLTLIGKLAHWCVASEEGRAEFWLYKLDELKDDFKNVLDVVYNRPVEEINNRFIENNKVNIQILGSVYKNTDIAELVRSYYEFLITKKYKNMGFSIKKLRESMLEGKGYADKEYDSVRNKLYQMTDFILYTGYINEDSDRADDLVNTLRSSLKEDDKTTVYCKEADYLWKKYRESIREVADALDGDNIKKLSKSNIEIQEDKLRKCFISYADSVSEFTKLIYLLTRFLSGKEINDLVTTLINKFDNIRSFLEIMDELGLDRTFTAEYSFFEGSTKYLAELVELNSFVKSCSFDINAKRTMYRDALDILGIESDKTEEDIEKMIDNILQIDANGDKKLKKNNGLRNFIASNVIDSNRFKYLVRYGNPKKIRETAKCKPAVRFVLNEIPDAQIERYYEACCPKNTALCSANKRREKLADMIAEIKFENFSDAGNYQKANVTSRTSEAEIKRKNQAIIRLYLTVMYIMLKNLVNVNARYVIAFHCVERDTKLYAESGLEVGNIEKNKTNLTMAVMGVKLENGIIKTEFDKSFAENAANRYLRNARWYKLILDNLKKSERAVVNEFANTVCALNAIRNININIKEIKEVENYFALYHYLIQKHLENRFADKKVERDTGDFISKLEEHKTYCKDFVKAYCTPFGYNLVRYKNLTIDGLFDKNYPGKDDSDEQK
Assay summary: crRNA (strand 1, pre-loaded); Mg2+; 40 mM Tris-HCl pH 7.5, 150 mM NaCl, 6 mM MgCl2, 1 mM DTT, 0.1% Tween-20, 0.2 mg/ml BSA; 25 C; 10 min per concentration, then washed
Condition notes: tags: His6-TwinStrep-SUMO cleaved; N-terminal SNAP kept (SNAP-Surface 488); label: 3' end held by stalled T7 RNA polymerase
Property: pKd
Numbers only, as −log10 of the molar value.

Example binders with recorded pKd:
| Binder | pKd |
| --- | --- |
| target 1 insU 3' of 2,insU 3' of 1 (mixed) RNA 1: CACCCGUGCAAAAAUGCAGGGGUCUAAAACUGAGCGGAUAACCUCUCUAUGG RNA 2: GGGAAUGGAUCCACAUCUACGAAUUCGUACCAUAGAGAGGUUAUCCGCUCUAUCCGAGAUCGGAAGAGCACACGU | 7.97 |
| target 1 insA 3' of 2,insU 3' of 2 (mixed) RNA 1: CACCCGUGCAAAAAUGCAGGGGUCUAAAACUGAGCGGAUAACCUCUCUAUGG RNA 2: GGGAAUGGAUCCACAUCUACGAAUUCGUACCAUAGAGAGGUUAUCCGCUCAUACCGAGAUCGGAAGAGCACACGU | 7.92 |

Report pKd for each item below.
1. target 1 del5,del11 (mixed) RNA 1: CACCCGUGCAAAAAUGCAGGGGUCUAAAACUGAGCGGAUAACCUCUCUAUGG RNA 2: GGGAAUGGAUCCACAUCUACGAAUUCGUACCAUAGAGAGGUAUCCCUCACCGAGAUCGGAAGAGCACACGU
2. target 1 insA 3' of 17,insA 3' of 3 (mixed) RNA 1: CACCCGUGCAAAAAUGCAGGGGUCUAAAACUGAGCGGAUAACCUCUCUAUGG RNA 2: GGGAAUGGAUCCACAUCUACGAAUUCGUACCAUAGAAGAGGUUAUCCGCUACACCGAGAUCGGAAGAGCACACGU

OUTPUT:
1. 7.52
2. 7.93

Each recorded value in this set is attributed to paper PMC10786891.
